protocolDescription: Plasma psilocin pharmacokinetics during and after one-hour intravenous infusion of psilocin or psilocybin
conditionParameters: male, Sprague Dawley, rat, plasma, iv, 10 mg/kg, Plasma concentration of psilocin, individual rats; 10 mg/kg psilocin one-hour IV infusion; sampling time 6 h
recordedEndpoint: concentration at 6 h (ng/mL)

CN(C)CCc1c[nH]c2cccc(O)c12 [psilocin, 4-hydroxy-N,N-dimethyltryptamine] :: 47.7

====

protocolDescription: Plasma psilocin pharmacokinetics during and after one-hour intravenous infusion of psilocin or psilocybin
conditionParameters: male, Sprague Dawley, rat, plasma, iv, 10 mg/kg
recordedEndpoint: Tmax (h)

CN(C)CCc1c[nH]c2cccc(O)c12 [psilocin, 4-hydroxy-N,N-dimethyltryptamine] :: 1

====

protocolDescription: Plasma psilocin pharmacokinetics during and after one-hour intravenous infusion of psilocin or psilocybin
conditionParameters: male, Sprague Dawley, rat, plasma, iv, 10 mg/kg, Plasma concentration of psilocin, individual rats; 10 mg/kg psilocin one-hour IV infusion; sampling time 0.5 h
recordedEndpoint: concentration at 0.5 h (ng/mL)

CN(C)CCc1c[nH]c2cccc(O)c12 [psilocin, 4-hydroxy-N,N-dimethyltryptamine] :: 1510

====

protocolDescription: Plasma psilocin pharmacokinetics during and after one-hour intravenous infusion of psilocin or psilocybin
conditionParameters: male, Sprague Dawley, rat, plasma, iv, 10 mg/kg, Plasma concentration of psilocin, mean of 3 rats; 10 mg/kg psilocin one-hour IV infusion; sampling time 8 h
recordedEndpoint: concentration at 8 h (ng/mL)

CN(C)CCc1c[nH]c2cccc(O)c12 [psilocin, 4-hydroxy-N,N-dimethyltryptamine] :: 22.2

====

protocolDescription: Plasma psilocin pharmacokinetics during and after one-hour intravenous infusion of psilocin or psilocybin
conditionParameters: male, Sprague Dawley, rat, plasma, iv, 10 mg/kg, Plasma concentration of psilocin, individual rats; 10 mg/kg psilocin one-hour IV infusion; sampling time 0.25 h
recordedEndpoint: concentration at 0.25 h (ng/mL)

CN(C)CCc1c[nH]c2cccc(O)c12 [psilocin, 4-hydroxy-N,N-dimethyltryptamine] :: 1070

====

protocolDescription: Plasma psilocin pharmacokinetics during and after one-hour intravenous infusion of psilocin or psilocybin
conditionParameters: male, Sprague Dawley, rat, plasma, iv, 10 mg/kg, Cmax, plasma psilocin; individual rats; 10 mg/kg psilocin one-hour IV infusion
recordedEndpoint: Cmax (ng/mL)

CN(C)CCc1c[nH]c2cccc(O)c12 [psilocin, 4-hydroxy-N,N-dimethyltryptamine] :: 1610

====

protocolDescription: Plasma psilocin pharmacokinetics during and after one-hour intravenous infusion of psilocin or psilocybin
conditionParameters: male, Sprague Dawley, rat, plasma, iv, 10 mg/kg, Plasma concentration of psilocin, individual rats; 10 mg/kg psilocin one-hour IV infusion; sampling time 2 h
recordedEndpoint: concentration at 2 h (ng/mL)

CN(C)CCc1c[nH]c2cccc(O)c12 [psilocin, 4-hydroxy-N,N-dimethyltryptamine] :: 714

====

protocolDescription: Plasma psilocin pharmacokinetics during and after one-hour intravenous infusion of psilocin or psilocybin
conditionParameters: male, Sprague Dawley, rat, plasma, iv, 10 mg/kg, Plasma concentration of psilocin, mean of 3 rats; 10 mg/kg psilocin one-hour IV infusion; sampling time 0.5 h
recordedEndpoint: concentration at 0.5 h (ng/mL)

CN(C)CCc1c[nH]c2cccc(O)c12 [psilocin, 4-hydroxy-N,N-dimethyltryptamine] :: 1580

====

protocolDescription: Plasma psilocin pharmacokinetics during and after one-hour intravenous infusion of psilocin or psilocybin
conditionParameters: male, Sprague Dawley, rat, plasma, iv, 10 mg/kg, Cmax, plasma psilocin; mean of 3 rats; 10 mg/kg psilocin one-hour IV infusion
recordedEndpoint: Cmax (ng/mL)

CN(C)CCc1c[nH]c2cccc(O)c12 [psilocin, 4-hydroxy-N,N-dimethyltryptamine] :: 1800

Data provenance is patent US20240307420A1.
